Record form. Attribute: pIC50. Fill in for each entry.
- TARGET OF ASSAY: purified human 15-lipoxygenase (Homo sapiens, UniProt P16050)
- Sequence (P16050 whole entry): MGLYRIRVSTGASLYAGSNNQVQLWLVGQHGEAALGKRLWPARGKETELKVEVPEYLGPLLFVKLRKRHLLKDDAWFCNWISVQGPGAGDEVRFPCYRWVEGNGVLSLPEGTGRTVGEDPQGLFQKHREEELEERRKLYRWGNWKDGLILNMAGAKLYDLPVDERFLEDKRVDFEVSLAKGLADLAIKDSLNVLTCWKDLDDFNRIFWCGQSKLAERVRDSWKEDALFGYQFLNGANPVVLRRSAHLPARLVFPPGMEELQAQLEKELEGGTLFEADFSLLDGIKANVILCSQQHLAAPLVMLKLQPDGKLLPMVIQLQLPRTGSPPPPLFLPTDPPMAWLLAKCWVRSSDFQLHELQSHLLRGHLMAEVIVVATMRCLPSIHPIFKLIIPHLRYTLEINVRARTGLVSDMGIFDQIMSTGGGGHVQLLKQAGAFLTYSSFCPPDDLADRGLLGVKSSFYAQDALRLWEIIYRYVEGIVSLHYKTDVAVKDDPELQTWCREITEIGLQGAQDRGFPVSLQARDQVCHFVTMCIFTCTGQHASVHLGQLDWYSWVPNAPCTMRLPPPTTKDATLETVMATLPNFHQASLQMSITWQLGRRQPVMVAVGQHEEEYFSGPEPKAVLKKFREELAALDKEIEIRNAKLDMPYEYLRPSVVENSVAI
- PROTOCOL DETAILS: 15-lipoxygenase inhibition assay (arachidonic acid oxidation, HPLC readout)
- Format: biochemical
- EXPERIMENTAL PARAMETERS: arachidonic acid substrate, room temperature, PBS pH 7.4; read-out: IC50
Just so you know, pIC50 here is -log10 of the concentration in molar units; reply with that number alone.

Q: Name the recorded pIC50 of the compound listed here: `O=C(Nc1cccc2[nH]ccc12)c1cc(Cl)[nH]n1`
Result: 6.68

Q: Please look at this compound and report its pIC50: `O=C(Nc1ccnc2ccc(Br)cc12)c1cc[nH]n1`
Result: 6.17

Q: Check the records and state pIC50 for `O=C(Nc1cccc2cccnc12)c1cc[nH]n1`
Result: 6.33

Q: // fetch pIC50 given entry `CCOC(=O)c1c(NC(=O)c2cc[nH]n2)sc2c1CCCC2`
Result: 7.12

Q: Please look at this compound and report its pIC50: `Cc1cc(C(=O)Nc2cccc3ncccc23)n[nH]1`
Result: 6.38

Q: Indicate its recorded pIC50; the compound in question is `O=C(Nc1cccc2c1OC(F)(F)O2)c1cc[nH]n1`
Result: 6.41
